Experiment: Pharmacokinetic analysis in mice
Format: in vivo, C57BL/6 mice
Settings: mouse, in vivo, ip; single dose 10 mg/kg intraperitoneally, 6% Captisol in water, female C57BL/6 mice; read-out: maximum plasma concentration (Cmax)
Text: The pharmacokinetic properties of SS-1-64 are summarized in the following table along with a comparator RIPK2/NOD inhibitor CSLP37, N-(5-(2-Amino-5-(4-(piperazin-1-yl)phenyl)pyridin-3-yl)-3-fluoro-2-methoxyphenyl)propane-1-sulfonamide (U.S. Pat. No. 11,135,298 to Cuny et al.).
property: Cmax (nM)
Numeric answer only, unit nM assumed.

# input Supply reported Cmax belonging to this molecule: `COc1cc(-c2cc(-c3ccc(C4CCN(C)CC4)cc3)cnc2N)cc(NS(C)(=O)=O)c1OC`
# output 1630

###

Test: Pharmacokinetic analysis in mice
Format: in vivo, C57BL/6 mice
Details: female, C57BL/6, mouse, in vivo, ip, 10 mg/kg
property: Cmax (nM)
Numeric answer only, unit nM assumed.

# input Supply reported Cmax belonging to this compound: CCCS(=O)(=O)Nc1cc(-c2cc(-c3ccc(N4CCNCC4)cc3)cnc2N)cc(F)c1OC [CSLP37, reference compound]
# output 550

###

Biological target: Recombinant RIPK2 protein (Homo sapiens, UniProt O43353)
Sequence (O43353 whole entry, species assumed): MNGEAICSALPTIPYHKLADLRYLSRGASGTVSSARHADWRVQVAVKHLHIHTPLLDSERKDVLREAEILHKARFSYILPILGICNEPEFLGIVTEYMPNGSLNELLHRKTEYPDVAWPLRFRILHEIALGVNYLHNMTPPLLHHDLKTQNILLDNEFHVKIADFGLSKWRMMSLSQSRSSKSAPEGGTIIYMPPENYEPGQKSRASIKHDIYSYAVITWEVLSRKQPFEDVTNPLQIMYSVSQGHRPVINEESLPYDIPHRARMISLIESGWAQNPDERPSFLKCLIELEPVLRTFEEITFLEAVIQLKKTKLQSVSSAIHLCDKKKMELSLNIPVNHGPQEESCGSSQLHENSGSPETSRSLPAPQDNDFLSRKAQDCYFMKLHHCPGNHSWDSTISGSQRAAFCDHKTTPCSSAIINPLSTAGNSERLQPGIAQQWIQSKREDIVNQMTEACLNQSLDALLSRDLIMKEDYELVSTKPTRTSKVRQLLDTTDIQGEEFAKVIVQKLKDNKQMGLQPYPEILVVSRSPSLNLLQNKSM
Experiment: RIPK2 enzyme assay (ADP-Glo)
Format: biochemical
Details: NI: no inhibition observed
property: IC50 (nM)
Numeric answer only, unit nM assumed.

Observe how each entry below is paired with its result.
[
  {
    "moleculeSmiles": "CCCS(=O)(=O)Nc1cc(-c2cc(-c3ccc(C4CCNCC4)cc3)cnc2N)cc(F)c1OC",
    "targetEntity": "Recombinant RIPK2 protein (Homo sapiens, UniProt O43353)",
    "recordedValue": 11
  },
  {
    "moleculeSmiles": "CCCS(=O)(=O)Nc1cc(-c2cc(-c3ccc(C4CCN(C)CC4)cc3)cnc2N)cc(F)c1OC",
    "targetEntity": "Recombinant RIPK2 protein (Homo sapiens, UniProt O43353)",
    "recordedValue": 31
  },
  {
    "moleculeSmiles": "COc1c(F)cc(-c2cc(-c3ccc(N4CCNCC4)cc3)cnc2N)cc1NS(C)(=O)=O",
    "targetEntity": "Recombinant RIPK2 protein (Homo sapiens, UniProt O43353)",
    "recordedValue": 29
  },
  {
    "moleculeSmiles": "CCCS(=O)(=O)N(C)c1cc(-c2cc(-c3ccc(N4CCNCC4)cc3)cnc2N)cc(F)c1OC",
    "targetEntity": "Recombinant RIPK2 protein (Homo sapiens, UniProt O43353)",
    "recordedValue": 137
  }
]

Continue with the molecule presented below.
# input Supply reported IC50 belonging to this molecule: `CCCS(=O)(=O)Nc1cc(-c2cc(-c3ccc(N4CCN(C)CC4)cc3)cnc2N)cc(F)c1OC`
# output 10

###

Experiment: Pharmacokinetic analysis in mice
Format: in vivo, C57BL/6 mice
Details: mouse, in vivo, ip; single dose 10 mg/kg intraperitoneally, female C57BL/6 mice; read-out: t1/2 (plasma elimination half-life) (converted)
Text: The pharmacokinetic properties of SS-1-64 are summarized in the following table along with a comparator RIPK2/NOD inhibitor CSLP37, N-(5-(2-Amino-5-(4-(piperazin-1-yl)phenyl)pyridin-3-yl)-3-fluoro-2-methoxyphenyl)propane-1-sulfonamide (U.S. Pat. No. 11,135,298 to Cuny et al.).
property: half-life (h)
Numeric answer only, unit h assumed.

# input Supply reported half-life belonging to this compound: `COc1cc(-c2cc(-c3ccc(C4CCN(C)CC4)cc3)cnc2N)cc(NS(C)(=O)=O)c1OC`
# output 7.88
